experimental_system: Beta-secretase 1 (Homo sapiens)
Sequence (P56817 whole entry): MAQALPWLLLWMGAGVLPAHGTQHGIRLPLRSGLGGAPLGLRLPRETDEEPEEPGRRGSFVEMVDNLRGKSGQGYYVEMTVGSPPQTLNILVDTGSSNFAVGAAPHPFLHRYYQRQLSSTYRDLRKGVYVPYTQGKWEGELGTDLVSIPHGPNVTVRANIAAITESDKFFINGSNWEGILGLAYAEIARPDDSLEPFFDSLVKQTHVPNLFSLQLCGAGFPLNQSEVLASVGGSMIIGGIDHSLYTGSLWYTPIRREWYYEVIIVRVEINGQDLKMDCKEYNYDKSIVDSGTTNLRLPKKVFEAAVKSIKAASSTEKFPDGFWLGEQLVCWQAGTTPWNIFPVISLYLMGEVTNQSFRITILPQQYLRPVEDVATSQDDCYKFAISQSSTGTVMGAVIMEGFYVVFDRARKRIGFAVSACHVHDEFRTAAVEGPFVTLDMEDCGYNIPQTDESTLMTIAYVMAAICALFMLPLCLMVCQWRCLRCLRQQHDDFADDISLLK
method_notes: Inhibition of BACE1 by HPLC method
property_name: IC50 (nM)

Consider the worked cases shown below.
molecule	output_unit	IC50
CC(=O)N[C@]1(CC(C)C)CCN([C@@H](CCc2ccccc2)C(=O)N[C@@H](Cc2cc(F)cc(F)c2)[C@H](O)[C@H]2Cc3ccccc3CN2)C1=O	nM	8.6
CCC(C)[C@@]1(NC(C)=O)CCN([C@@H](CCc2ccccc2)C(=O)N[C@@H](Cc2cc(F)cc(F)c2)[C@H](O)CNCc2cccc(OC)c2)C1=O (some centres undefined)	nM	6.1

(I) CCC[C@@H](O)[C@H]1CCN([C@@H](CCc2ccccc2)C(=O)N[C@@H](Cc2cc(F)cc(F)c2)[C@H](O)[C@H]2C[C@H](O)CN2)C1=O
(II) CCC(C)[C@@]1(NC(C)=O)CCN([C@@H](CCc2ccccc2)C(=O)N[C@@H](Cc2cc(F)cc(F)c2)[C@H](O)[C@H]2C[C@@H](OCc3ccc(F)cc3)CN2)C1=O (some centres undefined)
Query :: Which entry shows the lesser value of IC50 here, I or II ? // output: label of the selected item
Result :: II
